- System: SW872
- PROTOCOL_NOTES: relative viability vs DMSO control (72 h) (fraction); higher = more viable cells
- CONDITION_NOTES: 0.00051 µM
Labelling: relative viability reported below 1 becomes T; at or above becomes F.

// below: answered molecules
1. Nc1cc(C(F)(F)F)c(-c2cc(N3CCOCC3)nc(N3CCOCC3)n2)cn1 [Buparlisib] | T
2. CN1CCC(COc2cnc(-c3cccc(Cn4nc(-c5cccc(C#N)c5)ccc4=O)c3)nc2)CC1 [Tepotinib] | F
3. C=CC(=O)N1CCC([C@@H]2CCNc3c(C(N)=O)c(-c4ccc(Oc5ccccc5)cc4)nn32)CC1 [Zanubrutinib] | F
4. CC(=O)Nc1cccc(-n2c(=O)n(C3CC3)c(=O)c3c(Nc4ccc(I)cc4F)n(C)c(=O)c(C)c32)c1 [Trametinib] | F
5. C[C@@H]1CCN(C(=O)CC#N)C[C@@H]1N(C)c1ncnc2[nH]ccc12 [Tofacitinib] | F

In: I'd appreciate it if you could check whether C=CC(=O)N1CCC[C@@H](n2nc(-c3ccc(Oc4ccccc4)cc3)c3c(N)ncnc32)C1 [Ibrutinib] has relative viability smaller than 1.
Out: F

In: Query Cn1cc(-c2cc3c(N4CCN(c5ncc([C@@](C)(N)c6ccc(F)cc6)cn5)CC4)ncnn3c2)cn1 [Avapritinib] next
Out: T

====

Overview of recorded relative viability for various molecules
- Tested on: SK-LMS-1
- PROTOCOL_NOTES: relative viability vs DMSO control (72 h) (fraction); higher = more viable cells
- CONDITION_NOTES: 0.04115 µM
Could you keep your reply to the number by itself?

Consider the reported relative viability for these molecules:
1) CC(C)(C)c1cc(NC(=O)Nc2ccc(-c3cn4c(n3)sc3cc(OCCN5CCOCC5)ccc34)cc2)no1 | 1.05
2) CCc1cc2c(cc1N1CCC(N3CCOCC3)CC1)C(C)(C)c1[nH]c3cc(C#N)ccc3c1C2=O | 1.08
3) CO[C@H]1C[C@@H]2CC[C@@H](C)[C@@](O)(O2)C(=O)C(=O)N2CCCC[C@H]2C(=O)O[C@H]([C@H](C)C[C@@H]2CC[C@@H](OP(C)(C)=O)[C@H](OC)C2)CC(=O)[C@H](C)/C=C(\C)[C@@H](O)[C@@H](OC)C(=O)[C@H](C)C[C@H](C)/C=C/C=C/C=C/1C | 0.594
4) Cc1ccc(F)c(NC(=O)Nc2ccc(-c3cccc4[nH]nc(N)c34)cc2)c1 | 1.01
5) N#CC[C@H](C1CCCC1)n1cc(-c2ncnc3[nH]ccc23)cn1 | 1.03

In: Need relative viability, item Cn1cc(-c2cc3c(N4CCN(c5ncc([C@@](C)(N)c6ccc(F)cc6)cn5)CC4)ncnn3c2)cn1
Out: 0.978

In: Query CC1(C)CNc2cc(NC(=O)c3cccnc3NCc3ccncc3)ccc21 next
Out: 1.03

====

- System: KHOS-NP
- PROTOCOL_NOTES: relative viability vs DMSO control (72 h) (fraction); higher = more viable cells
- CONDITION_NOTES: 1.111 µM
Overview of recorded relative viability for various compounds

Consider the reported relative viability for these compounds:
1. CC(=O)Nc1cccc(-n2c(=O)n(C3CC3)c(=O)c3c(Nc4ccc(I)cc4F)n(C)c(=O)c(C)c32)c1 [Trametinib] | 0.256
2. CN1CCC(COc2cnc(-c3cccc(Cn4nc(-c5cccc(C#N)c5)ccc4=O)c3)nc2)CC1 [Tepotinib] | 1.01
3. CC1(C)CNc2cc(NC(=O)c3cccnc3NCc3ccncc3)ccc21 [Motesanib] | 1
4. CCCS(=O)(=O)Nc1ccc(F)c(C(=O)c2c[nH]c3ncc(-c4ccc(Cl)cc4)cc23)c1F [Vemurafenib] | 1.07
5. CC(C)N1CCN(Cc2cnc(-c3cc(-c4cccc5[nH]ccc45)cc4[nH]ncc34)o2)CC1 [Nemiralisib] | 1.04

In: Need relative viability, item C[C@@H](c1ccc2nccn2c1)n1nnc2ncc(-c3cnn(C)c3)nc21 [Volitinib]
Out: 1.04

In: Query Cc1nc(NC(=O)N2CCC[C@H]2C(N)=O)sc1-c1ccnc(C(C)(C)C(F)(F)F)c1 [Alpelisib] next
Out: 0.992

In: Query CCc1cc2c(cc1N1CCC(N3CCOCC3)CC1)C(C)(C)c1[nH]c3cc(C#N)ccc3c1C2=O [Alectinib] next
Out: 1.06
